Hello, the source for this data is paper PMC6018403, in case you need it.

assay: Multi-component pharmacokinetic study of GQD, GQD-GC and single herb extracts in rats (plasma, LC/MS/MS); type: in vivo, Sprague-Dawley rats; details: male, Sprague-Dawley, rat, in vivo, po, 3.54 g/kg
property: Tmax (min)

Previously resolved entries follow.
c1c2c(cc3c1OCO3)-c1cc3ccc4c(c3c[n+]1CC2)OCO4 = 40.8
COc1c(O)cc2oc(-c3ccccc3)cc(=O)c2c1O = 4.8

I = COc1cc2c(cc1OC)-c1cc3ccc(OC)c(OC)c3c[n+]1CC2
II = O=c1cc(-c2ccccc2)oc2cc(O)cc(O)c12
(Q) Of I and II , which carries the smaller reported Tmax figure? Please respond with the label that marks your chosen entry.
(A) I
(I: 15 min, II: 34.8 min)

====

assay: Multi-component pharmacokinetic study of GQD, GQD-GC and single herb extracts in rats (plasma, LC/MS/MS); format: in vivo, Sprague-Dawley rats; details: male, Sprague-Dawley, rat, in vivo, po, 2.36 g/kg, AUClast
property: AUC(0-t) (ng·h/mL)

CC1(C(=O)O)CCC2(C)CCC3(C)C(=CC(=O)C4C5(C)CCC(OC6OC(C(=O)O)C(O)C(O)C6OC6OC(C(=O)O)C(O)C(O)C6O)C(C)(CO)C5CCC43C)C2C1 (stereo not drawn) [Compound 35, licorice saponin G2] = 81

P = O=C1C[C@@H](c2ccc(O[C@@H]3O[C@H](CO)[C@@H](O)[C@H](O)[C@H]3O)cc2)Oc2cc(O)ccc21 [Compound 26, liquiritin]
Q = O=C1C[C@@H](c2ccc(O)cc2)Oc2cc(O)ccc21 [Compound 29, liquiritigenin]
(Q) From the items above, decide which of P and Q has the lower AUC(0-t) reading. I would appreciate it if you answered with the label of your choice.
(A) Q
(Q: 75.4 ng·h/mL, P: 237 ng·h/mL)

====

assay: Multi-component pharmacokinetic study of GQD, GQD-GC and single herb extracts in rats (plasma, LC/MS/MS); assay type: in vivo, Sprague-Dawley rats; details: male, Sprague-Dawley, rat, in vivo, po, 2.36 g/kg
property: Cmax (ng/mL)

P = O=C1C[C@@H](c2ccc(O)cc2)Oc2cc(O)ccc21
Q = CC1(C(=O)O)CCC2(C)CCC3(C)C(=CC(=O)C4C5(C)CCC(OC6OC(C(=O)O)C(O)C(O)C6OC6OC(C(=O)O)C(O)C(O)C6O)C(C)(CO)C5CCC43C)C2C1 (stereo not drawn)
(Q) Short answer wanted: higher Cmax, P or Q ? Returns: label corresponding to the selected item.
(A) P

====

assay: Multi-component pharmacokinetic study of GQD, GQD-GC and single herb extracts in rats (plasma, LC/MS/MS); assay type: in vivo, Sprague-Dawley rats; details: male, Sprague-Dawley, rat; GG (Ge-Gen) group: rats, oral extract 9.45 g/kg, plasma; read-out: T1/2 (converted)
property: half-life (h)

Some entries whose results are on file:
O=c1c(-c2ccc(O)cc2)coc2cc(O[C@@H]3O[C@H](CO)[C@@H](O)[C@H](O)[C@H]3O)cc(O)c12 [Compound 4, genistin] = 6.88
O=c1c(-c2ccc(O)cc2)coc2c([C@@H]3O[C@H](CO)[C@@H](O)[C@H](O)[C@H]3O)c(O)ccc12 [Compound 7, puerarin] = 6.36
COc1ccc(C2=CC(=O)OC2Cc2ccc(O)cc2)c(OC2OC(CO)C(O)C(O)C2O)c1 [Compound 41, (4S)-puerol B 2″-O-glucopyranoside] = 9.31

1 = COc1ccc(-c2coc3cc(O[C@@H]4O[C@H](CO)[C@@H](O)[C@H](O)[C@H]4O)ccc3c2=O)cc1 [Compound 39, ononin]
2 = COc1ccc(-c2coc3c(C4OC(COC5OCC(O)(CO)C5O)C(O)C(O)C4O)c(O)ccc3c2=O)cc1 (stereo not drawn) [Compound 5]
3 = O=c1c(-c2ccc(O)cc2)coc2c(C3OC(COC4OCC(O)(CO)C4O)C(O)C(O)C3O)c(O)cc(O)c12 (stereo not drawn) [Compound 6]
(Q) Rank the 3 compounds: largest half-life first, smallest last. Please list each label once, in the requested order.
(A) 2, 3, 1
